From: patent US20230233569A1

# Target or system: NRAS Q61K (Homo sapiens, UniProt P01111+P62937, Q61K)
# Sequence (P01111 whole entry Q61K, one chain of several): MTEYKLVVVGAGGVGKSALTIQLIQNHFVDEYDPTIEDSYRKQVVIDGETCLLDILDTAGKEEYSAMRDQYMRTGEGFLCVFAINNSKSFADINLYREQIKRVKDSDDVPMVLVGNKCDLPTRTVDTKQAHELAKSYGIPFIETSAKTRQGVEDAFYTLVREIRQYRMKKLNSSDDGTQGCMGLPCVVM
# Assay name: Ras-Raf disruption / FRET / MOA assay (BRAF RBD)
# Type: biochemical
# Assay setup: NRAS Q61K; read-out: NRAS Q61K FRET data IC50
I'd be grateful if you could share measured IC50 for these entries.

{"Compound": "CCn1c(-c2cccnc2[C@H](C)OC)c2c3cc(ccc31)-c1csc(n1)C[C@H](NC(=O)[C@H](C(C)C)N(C)C(=O)N(C)[C@H]1CCN(C(=O)[C@@H]3CN3)C1)C(=O)N1CCC[C@H](N1)C(=O)OCC(C)(C)C2 (atropisomer, axis not shown)", "IC50": "0.1 to 1 µM"}

Shift focus to the following entry.
# compound `CCn1c(-c2cccnc2[C@H](C)OC)c2c3cc(ccc31)-c1csc(n1)C[C@H](NC(=O)[C@H](C(C)C)N(C)C(=O)N1CC[C@H]1CN(C)C(=O)[C@@H]1CN1)C(=O)N1CCC[C@H](N1)C(=O)OCC(C)(C)C2` ; its IC50 = 0.1 to 1 µM

----------
I'd be grateful if you could share measured pIC50 for these entries.
# Target or system: KRAS G13D (Homo sapiens, UniProt P01116+P62937, G13D)
# Sequence (P01116 1-169 isoform P01116-2 G13D limits assumed, one chain of several): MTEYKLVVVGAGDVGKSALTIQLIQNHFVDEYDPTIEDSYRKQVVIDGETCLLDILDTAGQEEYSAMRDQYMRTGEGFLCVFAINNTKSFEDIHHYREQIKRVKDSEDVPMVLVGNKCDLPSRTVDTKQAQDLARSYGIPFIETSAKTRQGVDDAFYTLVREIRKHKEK
# Assay name: Disruption of BRAF RBD interaction with Ras (FRET / MOA assay, with Cyclophilin A)
# Type: biochemical
# Assay setup: KRAS G13D; read-out: KRAS G13D FRET data IC50
pIC50: −log10 of the molar value.

Here are 3 compounds together with their reported answers.
{"Compound": "CCn1c(-c2cccnc2[C@H](C)OC)c2c3cc(ccc31)-c1csc(n1)C[C@H](NC(=O)[C@H](C(C)C)N(C)C(=O)N1CCC3(CC1)CN(C)CCO3)C(=O)N1CCC[C@H](N1)C(=O)OCC(C)(C)C2", "pIC50": "6.00 to 7.00"}
{"Compound": "CCn1c(-c2cc(N3CCN(C)CC3)cnc2[C@H](C)OC)c2c3cc(ccc31)-c1csc(n1)C[C@H](NC(=O)[C@H](C(C)C)N(C)C(=O)[C@H]1CCNC1=O)C(=O)N1CCC[C@H](N1)C(=O)OCC(C)(C)C2 (single isomer, unassigned)", "pIC50": "5.00 to 6.00"}
{"Compound": "CCn1c(-c2cccnc2[C@H](C)OC)c2c3cc(ccc31)-c1cc(O)cc(c1)C[C@H](NC(=O)[C@H](C(C)C)N(C)C(=O)[C@H]1CCN(CCO)C1)C(=O)N1CCC[C@H](N1)C(=O)OCC(C)(C)C2", "pIC50": "7.00 to 8.00"}

Shift focus to the following entry.
Note to self: pIC50 of CCn1c(-c2cccnc2[C@H](C)OC)c2c3cc(ccc31)-c1csc(n1)C[C@H](NC(=O)[C@H](C(C)C)N(C)C(=O)N1CC(C3CN(C)C3)C1)C(=O)N1CCC[C@H](N1)C(=O)OCC(C)(C)C2 (atropisomer, axis not shown) with KRAS G13D (Homo sapiens, UniProt P01116+P62937, G13D) was 6.00 to 7.00

----------
I'd be grateful if you could share measured IC50 for these entries.
# Target or system: KRAS G12C (Homo sapiens, UniProt P01116+P62937, G12C)
# Sequence (P01116 1-169 isoform P01116-2 G12C): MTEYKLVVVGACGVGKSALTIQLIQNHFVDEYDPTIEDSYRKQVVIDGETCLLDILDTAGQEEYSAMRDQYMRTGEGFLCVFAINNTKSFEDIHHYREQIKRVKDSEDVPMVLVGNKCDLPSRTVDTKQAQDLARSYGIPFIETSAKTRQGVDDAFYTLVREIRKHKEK
# Sequence (P62937 whole entry): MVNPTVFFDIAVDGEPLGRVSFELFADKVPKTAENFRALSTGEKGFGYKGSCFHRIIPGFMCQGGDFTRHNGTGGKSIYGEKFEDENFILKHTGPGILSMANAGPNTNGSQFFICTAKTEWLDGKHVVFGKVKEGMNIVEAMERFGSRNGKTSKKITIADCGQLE
# Assay name: Disruption of BRAF RBD interaction with Ras (FRET / MOA assay, with Cyclophilin A)
# Format: biochemical
# Assay setup: read-out: KRAS G12C FRET data, IC50
# Excerpt: This protocol may also be executed substituting other Ras proteins or nucleotides. The purpose of this biochemical assay was to measure the ability of test compounds to facilitate ternary complex formation between a nucleotide-loaded K-Ras isoform and Cyclophilin A; the resulting ternary complex disrupts binding to a BRAF^RBD construct, inhibiting K-Ras signaling through a RAF effector. Data is reported as IC50 values. […]

Consider the following items and state reported IC50 for each.
1. CCn1c(-c2cccnc2[C@H](C)OC)c2c3cc(ccc31)-c1cc(O)cc(c1)C[C@H](NC(=O)[C@H](C(C)C)N(C)C(=O)[C@H]1CCN(C(=O)CN)C1)C(=O)N1CCC[C@H](N1)C(=O)OCC(C)(C)C2 [Example A1]
2. CCn1c(-c2cccnc2[C@H](C)OC)c2c3cc(ccc31)-c1csc(n1)C[C@H](NC(=O)[C@H](C(C)C)N(C)C(=O)N1CCN(C(=O)[C@H]3CCCN3C)CC1)C(=O)N1CCC[C@H](N1)C(=O)OCC(C)(C)C2 (atropisomer, axis not shown) [Example A595]
3. CCN1CC(C(=O)N(C)[C@H](C(=O)N[C@H]2Cc3cc(O)cc(c3)-c3ccc4c(c3)c(c(-c3cccnc3[C@H](C)OC)n4CC)CC(C)(C)COC(=O)[C@@H]3CCCN(N3)C2=O)C(C)C)CC1=O (some centres unmarked) [Example A248]
4. CCn1c(-c2cccnc2[C@H](C)OC)c2c3cc(ccc31)-c1cc(O)cc(c1)C[C@H](NC(=O)[C@H](C(C)C)N(C)C(=O)[C@H]1C[C@@H]1C)C(=O)N1CCC[C@H](N1)C(=O)OCC(C)(C)C2 [Example A287]
5. CCn1c(-c2cnccc2COC)c2c3cc(ccc31)-c1cc(O)cc(c1)C[C@H](NC(=O)[C@H](C(C)C)N(C)C(=O)[C@H]1CCN(S(=O)(=O)N3CC(N)C3)C1)C(=O)N1CCC[C@H](N1)C(=O)OCC(C)(C)C2 [Example A35]

Result block:
10 to 100 nM
10 to 100 nM
10 to 100 nM
100 to 1000 nM
100 to 1000 nM

Consider the following items and state reported IC50 for each.
1. CCn1c(-c2cccnc2[C@H](C)OC)c2c3cc(ccc31)-c1cccc(c1)C[C@H](NC(=O)[C@H](C(C)C)N(C)C(=O)[C@H]1CCN(CCO)C1)C(=O)N1CCC[C@H](N1)C(=O)OCC(C)(C)C2 [Example A109]
2. CCn1c(-c2cccnc2[C@H](C)OC)c2c3cc(ccc31)-c1cccc(c1)C[C@H](NC(=O)[C@H](C(C)C)N(C)C(=O)[C@H]1CCN(C(=O)C(C)(C)N(C)C)C1)C(=O)N1CCC[C@H](N1)C(=O)OCC(C)(C)C2 [Example A112]
3. CCn1c(-c2cccnc2[C@H](C)OC)c2c3cc(ccc31)-c1cc(O)cc(c1)C[C@H](NC(=O)[C@H](C(C)C)N(C)C(=O)C1CCC(C3CCCO3)O1)C(=O)N1CCC[C@H](N1)C(=O)OCC(C)(C)C2 (some centres unmarked) [Example A396]
4. CCn1c(-c2cccnc2[C@H](C)OC)c2c3cc(ccc31)-c1csc(n1)[C@@H](O)[C@H](NC(=O)[C@H](C(C)C)N(C)C(=O)N1CC(N(C)C)C1)C(=O)N1CCC[C@H](N1)C(=O)OCC(C)(C)C2 (atropisomer, axis not shown) [Example A489]
5. C=CC(=O)N1CC[C@H](C(=O)Nc2ccccc2C(=O)N[C@H]2Cc3cc(O)cc(c3)-c3ccc4c(c3)c(c(-c3cnccc3COC)n4CC)CC(C)(C)COC(=O)[C@@H]3CCCN(N3)C2=O)C1 [Example A229]

Result block:
["1000 to 10000 nM", "1000 to 10000 nM", "10 to 100 nM", "10 to 100 nM", "10 to 100 nM"]
